I'd be grateful if you could share measured inhibition for these entries.
- system_name: Serine/threonine-protein phosphatase 5 (Homo sapiens) (UniProt P53041)
- Sequence (P53041 whole entry, looked up): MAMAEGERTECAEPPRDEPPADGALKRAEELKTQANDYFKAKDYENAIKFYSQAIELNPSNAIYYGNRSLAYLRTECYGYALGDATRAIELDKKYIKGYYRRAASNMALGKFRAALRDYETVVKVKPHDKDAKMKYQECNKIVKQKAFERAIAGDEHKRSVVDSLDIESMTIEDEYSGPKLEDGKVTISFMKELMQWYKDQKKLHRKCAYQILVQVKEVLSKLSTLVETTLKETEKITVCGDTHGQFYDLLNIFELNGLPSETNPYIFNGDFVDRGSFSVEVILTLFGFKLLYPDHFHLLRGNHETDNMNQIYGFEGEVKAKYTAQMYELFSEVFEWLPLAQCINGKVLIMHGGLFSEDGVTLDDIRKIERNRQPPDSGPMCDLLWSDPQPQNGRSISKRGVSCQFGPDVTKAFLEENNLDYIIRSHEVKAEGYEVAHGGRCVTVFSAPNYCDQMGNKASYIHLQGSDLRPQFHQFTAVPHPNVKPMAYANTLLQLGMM
- assay_procedure: PP5 phosphatase inhibitors, confirmation, biochemical, fluorescence, human (AID 2331)
- condition_label: Purified PP5, fluorogenic phosphatase substrate, at 6.7 µM, active compounds read high
The list shows a part of the results.
Give the quantity in %, number only.

Enquiry: What is its inhibition for Serine/threonine-protein phosphatase 5 (Homo sapiens) (UniProt P53041)? Entry: CN(c1ccccc1)S(=O)(=O)c1ccc(NC(=O)COc2ccccc2)cc1
Return: 1.21

Enquiry: What is its inhibition for Serine/threonine-protein phosphatase 5 (Homo sapiens) (UniProt P53041)? Entry: CCOC(=O)Nc1ccc2c(c1)N(C(=O)CN1CCN3CCCC3C1)c1ccccc1CC2 (configuration not stated)
Return: -4.11

Enquiry: What is its inhibition for Serine/threonine-protein phosphatase 5 (Homo sapiens) (UniProt P53041)? Entry: O=C(O)c1n[nH]nc1-c1ccccc1
Return: 41.3

Enquiry: What is its inhibition for Serine/threonine-protein phosphatase 5 (Homo sapiens) (UniProt P53041)? Entry: Cc1nnc(SCc2nc3ccccc3nc2C)s1
Return: -2.92

Enquiry: What is its inhibition for Serine/threonine-protein phosphatase 5 (Homo sapiens) (UniProt P53041)? Entry: O=C(C1=C[C@H](c2ccc(C(F)(F)F)cc2)C[C@H](OCc2ccc(CO)cc2)O1)N1CCN(Cc2ccccc2)CC1
Return: 3.97

Enquiry: What is its inhibition for Serine/threonine-protein phosphatase 5 (Homo sapiens) (UniProt P53041)? Entry: C[C@@]12C(=O)N(c3cccc(Br)c3)C(=O)N1[C@H](c1ccc(Cl)cc1)[C@@H]1C(=O)N(C3CCCCC3)C(=O)[C@@H]12
Return: 7.67

Enquiry: What is its inhibition for Serine/threonine-protein phosphatase 5 (Homo sapiens) (UniProt P53041)? Entry: CN(C)c1nc(N)nc(CSc2nnnn2-c2cccc3ccccc23)n1
Return: -0.03

Enquiry: What is its inhibition for Serine/threonine-protein phosphatase 5 (Homo sapiens) (UniProt P53041)? Entry: Cc1sc(NC(=O)C2C3CCC(O3)C2C(=O)O)c(C(=O)OC(C)C)c1-c1ccc(Cl)cc1 (configuration not stated)
Return: 3.03

Enquiry: What is its inhibition for Serine/threonine-protein phosphatase 5 (Homo sapiens) (UniProt P53041)? Entry: COc1ccc(OC)c(C(=O)c2ccc(C(=O)O)cc2)c1
Return: -7.99

Enquiry: What is its inhibition for Serine/threonine-protein phosphatase 5 (Homo sapiens) (UniProt P53041)? Entry: COCCN1C=C2C(=O)C(C)(OC(=O)C3CCCC3)C(=O)C=C2C=C1c1ccsc1 (configuration not stated)
Return: 43.5

Enquiry: What is its inhibition for Serine/threonine-protein phosphatase 5 (Homo sapiens) (UniProt P53041)? Entry: COc1cc(C(F)(F)F)c(C(=O)N(C)c2ccc(Cl)cc2)cn1
Return: -0.02

Enquiry: What is its inhibition for Serine/threonine-protein phosphatase 5 (Homo sapiens) (UniProt P53041)? Entry: N#Cc1c(N2CCCCC2)nc(N)c2c(N)nc(SCC(=O)O)cc12
Return: 36.8
